Sourced from paper PMC9911399

- Subject of test: T1, RBFOX1 RRM (Homo sapiens, UniProt Q9NWB1 109-208)
- T1 sequence: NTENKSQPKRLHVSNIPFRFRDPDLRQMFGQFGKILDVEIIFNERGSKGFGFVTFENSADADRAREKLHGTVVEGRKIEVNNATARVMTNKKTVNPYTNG
- Measurement notes: EMSA; HiTS-Eq, 1 nM pool, 10 min; buffer printed only for the single-RNA assays: 10 mM Tris pH 7.5, 150 mM NaCl, 3.4 mM EDTA, 0.001% NP-40, 30 C
- Particulars: tags: His6 N-terminal (pET28a); label: 5' 32P
The full ranking holds about 16,000 sequences; the median of “ka relative to ugcaugu” is about 0.0091, and the highest 2% start at about 0.032. The sample as a whole holds a higher share of the highest values than the screen did.
Recorded measurements of binding signal, one per entry
Attribute measured: binding signal

[[record]]
binder = "UUGAUCA (DNA:RNA) RNA: GGGAGACCGGAAUUCAGAUUGUCCUUGAUCAUUAAAUCCCGUCGUAGCCACCA DNA 1: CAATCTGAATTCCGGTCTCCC DNA 2: TGGTGGCTACGACGGGATT"
data_value = "0.0152 KA relative to UGCAUGU"

[[record]]
binder = "UGCAACU (DNA:RNA) RNA: GGGAGACCGGAAUUCAGAUUGUCCUGCAACUUUAAAUCCCGUCGUAGCCACCA DNA 1: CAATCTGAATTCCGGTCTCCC DNA 2: TGGTGGCTACGACGGGATT"
data_value = "0.0132 KA relative to UGCAUGU"

[[record]]
binder = "ACGUGUU (DNA:RNA) RNA: GGGAGACCGGAAUUCAGAUUGUCCACGUGUUUUAAAUCCCGUCGUAGCCACCA DNA 1: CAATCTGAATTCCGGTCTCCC DNA 2: TGGTGGCTACGACGGGATT"
data_value = "0.0131 KA relative to UGCAUGU"

[[record]]
binder = "GACUGGA (DNA:RNA) RNA: GGGAGACCGGAAUUCAGAUUGUCCGACUGGAUUAAAUCCCGUCGUAGCCACCA DNA 1: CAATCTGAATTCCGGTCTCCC DNA 2: TGGTGGCTACGACGGGATT"
data_value = "0.0138 KA relative to UGCAUGU"

[[record]]
binder = "UGCGAGG (DNA:RNA) RNA: GGGAGACCGGAAUUCAGAUUGUCCUGCGAGGUUAAAUCCCGUCGUAGCCACCA DNA 1: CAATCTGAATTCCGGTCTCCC DNA 2: TGGTGGCTACGACGGGATT"
data_value = "0.0231 KA relative to UGCAUGU"

[[record]]
binder = "AGAUAUU (DNA:RNA) RNA: GGGAGACCGGAAUUCAGAUUGUCCAGAUAUUUUAAAUCCCGUCGUAGCCACCA DNA 1: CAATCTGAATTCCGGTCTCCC DNA 2: TGGTGGCTACGACGGGATT"
data_value = "0.00865 KA relative to UGCAUGU"

[[record]]
binder = "UUGUCUG (DNA:RNA) RNA: GGGAGACCGGAAUUCAGAUUGUCCUUGUCUGUUAAAUCCCGUCGUAGCCACCA DNA 1: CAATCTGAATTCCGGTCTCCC DNA 2: TGGTGGCTACGACGGGATT"
data_value = "0.0312 KA relative to UGCAUGU"

[[record]]
binder = "GCGUGUG (DNA:RNA) RNA: GGGAGACCGGAAUUCAGAUUGUCCGCGUGUGUUAAAUCCCGUCGUAGCCACCA DNA 1: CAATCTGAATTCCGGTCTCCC DNA 2: TGGTGGCTACGACGGGATT"
data_value = "0.0222 KA relative to UGCAUGU"

[[record]]
binder = "CCAAUAG (DNA:RNA) RNA: GGGAGACCGGAAUUCAGAUUGUCCCCAAUAGUUAAAUCCCGUCGUAGCCACCA DNA 1: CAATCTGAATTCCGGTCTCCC DNA 2: TGGTGGCTACGACGGGATT"
data_value = "0.00034 KA relative to UGCAUGU"

